# viability index per entry
- System: Plasmodium falciparum NF54 stage V gametocytes
- test protocol: viability index relative to DMSO control (fraction); higher = less gametocyte killing
- settings: 2.5 µM, library set: Broad Institute DOS, incubation time: 72 h
Over roughly 9,900 compounds, “viability index relative to DMSO control” has its median near 1; the lowest 2% begin near 0.85. Shown is part of a subset that was picked to be rich in the lowest values.
metric: viability index

INSERT INTO assay_data (structure_string, reading) VALUES
  ('O=C(C[C@H]1CC[C@@H]2[C@H](COC[C@@H](O)CN2S(=O)(=O)c2ccc(F)cc2)O1)NCCN1CCCCC1', 1.11),
  ('CCC(=O)Nc1ccc2c(c1)C(=O)N(C)C[C@@H](OC)[C@H](C)CN(C(=O)Cc1cccnc1)[C@@H](C)CO2', 1.13),
  ('CCC(=O)N1CC2(C1)[C@@H](c1ccc(-c3cccc(C)c3)cc1)[C@@H](CO)N2S(C)(=O)=O', 1.06),
  ('COCC(=O)N1CC[C@@]2(CC1)CN([C@@H](CO)c1c2c2ccc(OC)cc2n1C)C(=O)c1ccccn1', 1.02),
  ('OC[C@H]1[C@H](c2ccc(C#Cc3ccccc3F)cc2)[C@@H]2CN(CC3CCOCC3)CCCCN12', 0.873),
  ('COc1ccc2c3c([nH]c2c1)[C@H](CO)N(C[C@]31CCN(CC1)C(=O)Cc1cccnc1)S(=O)(=O)c1ccc(C)cc1', 0.75),
  ('Cc1cccc(-c2ccc([C@@H]3[C@@H]4CN(C(=O)c5ccncc5)C[C@H]3N4)cc2)c1', 1.09),
  ('Fc1cccc(-c2ccc([C@@H]3[C@@H]4CN(Cc5cncnc5)C[C@H]3N4)cc2)c1', 1.04),
  ('C/C=C/c1ccc([C@@H]2[C@@H](CO)N3C(=O)CN(S(=O)(=O)c4ccccc4)C[C@H]23)cc1', 1.11),
  ('COc1ccc2c3c([nH]c2c1)[C@@H](CO)N(C[C@]31CN(C1)C(=O)Cc1cccnc1)S(C)(=O)=O', 1.06),
  ('CCc1nc(N2[C@H](C#N)[C@@H](c3ccccc3-c3ccccc3C)[C@@H]2CO)sc1C', 1.07),
  ('COc1ccc2c3c([C@@H](CO)N(C[C@]33CCN(CC4CCCC4)CC3)C(=O)C3CCC3)n(C)c2c1', 1.1),
  ('COc1ccc2c3c([C@@H](CO)N(C[C@]33CN(C3)C(=O)CC3CC3)C(=O)C3CCCC3)n(C)c2c1', 0.932),
  ('Cc1cccc(-c2ccc([C@H]3[C@@H]4CN(Cc5cccc(F)c5)C[C@H]3N4)cc2)c1', 1.05),
  ('C/C=C/c1ccc([C@H]2[C@H]3CNC[C@@H]2N3S(=O)(=O)c2ccccc2C)cc1', 1.04),
  ('COc1ccc2c3c([nH]c2c1)[C@H](CO)N(C[C@]31CN(C1)C(=O)Cc1cccnc1)S(C)(=O)=O', 1.08),
  ('O=C(CC1CC1)N1CC[C@@H]2[C@H]1c1cc(-c3ccc(F)cc3)ccc1N[C@@H]2CO', 1.05),
  ('CC(=O)N1CC2(C1)[C@@H](c1ccc(-c3ccc(F)cc3)cc1)[C@@H](CO)N2CC1CC1', 1.08),
  ('CN(C)CC(=O)N1C[C@@H]2N[C@H](C1)[C@@H]2c1ccc(C2=CCCCC2)cc1', 0.898),
  ('CCS(=O)(=O)N1CC[C@@]2(CC1)CN([C@@H](CO)c1[nH]c3cc(OC)ccc3c21)S(=O)(=O)c1ccc(C)cc1', 0.934),
  ('O=C(Nc1ccccc1)N1C[C@@H]2N[C@H](C1)[C@H]2c1ccc(-c2ccccc2F)cc1', 1.1),
  ('CN(C)CC(=O)N1C[C@@H]2N[C@H](C1)[C@@H]2c1ccc(-c2ccccc2F)cc1', 0.745),
  ('O=C(C1CCCCC1)N1C[C@@H]2N[C@H](C1)[C@H]2c1ccc(-c2ccccc2F)cc1', 1.08),
  ('CO[C@@H](CN(C)C(=O)c1cc(Cl)cc(Cl)c1)[C@@H](C)CN(C(=O)Nc1ccc(F)cc1)[C@@H](C)CO', 1.04),
  ('Cc1cccc(-c2ccc([C@@H]3[C@@H]4CN(C(=O)CN(C)C)C[C@H]3N4)cc2)c1', 0.477),
  ('C[C@H](CO)N1C[C@H](C)[C@@H](CN(C)S(=O)(=O)c2cn(C)cn2)Oc2cc(C#Cc3cccc(F)c3)ccc2S1(=O)=O', 1.05),
  ('CN(C)C(=O)c1cccc(-c2ccc([C@H]3[C@@H]4CN(Cc5ccccc5F)C[C@H]3N4)cc2)c1', 1.05),
  ('C[C@@H]1CN([C@H](C)CO)C(=O)CCCn2cc(nn2)CO[C@H]1CN(C)C(=O)Nc1cccc2ccccc12', 0.99),
  ('COc1ccc2c3c([nH]c2c1)[C@@H](CO)N(Cc1ccc(Cl)cc1)C[C@]31CN(C1)S(C)(=O)=O', 0.931),
  ('Fc1cccc(-c2ccc([C@H]3[C@H]4CNC[C@@H]3N4CC3CCOCC3)cc2)c1', 1.02),
  ('O=C(Nc1ccccc1)N1C[C@@H]2N[C@H](C1)[C@@H]2c1ccc(-c2ccccc2F)cc1', 1.03),
  ('N#C[C@@H]1[C@H](c2ccccc2-c2cccc(F)c2)[C@@H](CO)N1C(=O)c1cccnc1', 1.09),
  ('C[C@H](CO)N1C[C@H](C)[C@@H](CN(C)CC2CC2)OCCCC[C@H](C)Oc2ccc(NC(=O)c3ccccc3)cc2C1=O', 1.07);

###

- System: Plasmodium falciparum NF54 stage V gametocytes
- test protocol: viability index relative to DMSO control (fraction); higher = less gametocyte killing
- settings: 2.5 µM, library set: Broad Institute DOS, incubation time: 72 h
The full ranking holds about 9,900 compounds; the median of “viability index relative to DMSO control” is about 1, and the lowest 2% start at about 0.85. For the sample, the lowest values were picked, then their nearest neighbours and some compounds at random.
Hi! Could you tag entries with viability index below 1 as class 1, and those at or above as class 0? Much appreciated.

INSERT INTO assay_data (structure_string, class_label) VALUES
  ('COc1cccc(-c2ccc3n(c2=O)C[C@@H]2[C@@H](CO)[C@H](C(=O)N(C)C)[C@H]3N2C(=O)c2ccccn2)c1', 'class 0'),
  ('O=S(=O)(c1ccccc1)N1CCCCN2[C@H](C1)[C@@H](c1ccc(C#CC3CCCC3)cc1)[C@@H]2CO', 'class 1'),
  ('COC(=O)C[C@H]1CC[C@@H]2[C@H](COc3ccc(NC(=O)Nc4cccc(C#N)c4)cc3C(=O)N2C)O1', 'class 0'),
  ('O=C(C1CCOCC1)N1CC(=O)N2[C@H](C1)[C@H](c1ccc(C#CCc3ccccc3)cc1)[C@@H]2CO', 'class 0'),
  ('CCC(=O)N1[C@@H](CO)[C@@H]2c3ccccc3N(C(=O)Nc3ccc(Cl)cc3)C[C@@H]21', 'class 0'),
  ('O=S(=O)(c1ccccc1)N1CCCCN2[C@H](CO)[C@H](c3ccc(C#CC4CCCC4)cc3)[C@H]2C1', 'class 1'),
  ('COCc1cn(CC[C@@H]2CC[C@H](NC(=O)Nc3c(C)noc3C)[C@@H](CO)O2)nn1', 'class 0'),
  ('O=C(Cc1ccncc1)N1CC[C@@H]2[C@H](CO)Nc3ccc(Br)cc3[C@@H]21', 'class 0'),
  ('CNC[C@H]1OCCCC[C@@H](C)Oc2ccc(NC(=O)Nc3ccc(OC)cc3)cc2C(=O)N([C@@H](C)CO)C[C@@H]1C', 'class 1'),
  ('CN1C[C@@H](O)COC[C@H]2O[C@H](CC(=O)NC3CCCC3)CC[C@@H]21', 'class 0'),
  ('COCc1cn(CC[C@@H]2CC[C@H](NC(=O)Nc3c(C)noc3C)[C@H](CO)O2)nn1', 'class 1'),
  ('O=C(C1CCOCC1)N1CC(=O)N2[C@H](C1)[C@@H](c1ccc(C#CCc3ccccc3)cc1)[C@@H]2CO', 'class 0'),
  ('O=C(c1cnccn1)N1C[C@@H]2N[C@H](C1)[C@@H]2c1ccc(/C=C/c2ccccc2)cc1', 'class 0');

###

- System: Plasmodium falciparum NF54 stage V gametocytes
- test protocol: viability index relative to DMSO control (fraction); higher = less gametocyte killing
- settings: 2.5 µM, library set: Broad Institute Blood Stage, incubation time: 72 h
The full ranking holds about 9,900 compounds; the median of “viability index relative to DMSO control” is about 1, and the lowest 2% start at about 0.85. Many of the other results were omitted from the sample, so the lowest values are more common in it than they were.
Exam item: assign fulfilled to entries whose viability index is below 0.8 and not fulfilled to entries at or above 0.8. Note that a value of exactly 0.8 receives not fulfilled.

INSERT INTO assay_data (structure_string, class_label) VALUES
  ('O=C(c1ccc(F)cc1)N1CC(=O)N2[C@H](C1)[C@@H](c1ccc(-c3cccnc3)cc1)[C@@H]2CO', 'fulfilled'),
  ('COc1ccc(NC(=O)N(C)C[C@H]2Oc3c(NC(=O)Nc4ccccc4)cccc3C(=O)N([C@@H](C)CO)C[C@H]2C)cc1', 'fulfilled'),
  ('COc1ccc2c3c([C@@H](CO)NC[C@]33CCN(Cc4ccc(cc4)-c4ccccn4)CC3)n(C)c2c1', 'not fulfilled'),
  ('O=C(c1ccncc1)N1CC(=O)N2[C@H](C1)[C@@H](c1ccc(-c3cccnc3)cc1)[C@@H]2CO', 'not fulfilled'),
  ('O=C(c1cccc(F)c1)N1CC(=O)N2[C@H](CO)[C@H](c3ccc(-c4cccnc4)cc3)[C@H]2C1', 'fulfilled'),
  ('COc1ccc2c3c([C@H](CO)NC[C@]33CCN(Cc4ccc(cc4)-c4ccccn4)CC3)n(C)c2c1', 'not fulfilled'),
  ('COc1ccc2c3c([C@H](CO)N(Cc4ccc5OCOc5c4)C[C@]33CN(C3)C(=O)c3ccc4OCOc4c3)n(C)c2c1', 'fulfilled');
